The measured values listed here are drawn from patent US7034028B2.

system: IL-2; test: Cytokine inhibition profile: IL-2; assay type: cell-based; conditions: read-out: Inhibition Profile (IC50) IL-2
readout: IC50

# molecule, system under test, IC50
rows = [
    ("CCN(CCO)CCCC(C)Nc1ccnc2cc(Cl)ccc12 (stereo not shown) [Hydroxychloroquine, hydroxychloroquine]", "IL-2", "94 µM"),
]

Parameter requested: IC50. Apply to each item below.
1. O[C@H](c1cc(C(F)(F)F)nc2c(C(F)(F)F)cccc12)[C@@H]1CCCCN1 [(+)Mefloquine, (+)-Erythro-mefloquine]
2. CCN(CC)CCCC(C)Nc1ccnc2cc(Cl)ccc12 (stereo not shown)
3. OC(c1cc(C(F)(F)F)nc2c(C(F)(F)F)cccc12)C1CCCCN1 (single isomer, unassigned; (-)) [(−)Mefloquine]

["17 µM", "66 µM", "17 µM"]

====

test system: T-cell proliferation; assay: T-cell (lymphocyte) proliferation inhibition; assay type: cell-based, human; settings: Homo sapiens, T-cell; read-out: Inhibition Profile (IC50) T-cell proliferation
readout: pIC50
Answers are plain numbers, as −log10 of the molar value.

Provide the documented pIC50 with T-cell proliferation as the system for CCN(CCO)CCCC(C)Nc1ccnc2cc(Cl)ccc12 (stereo not shown) [Hydroxychloroquine, hydroxychloroquine]
4.80

====

system: TNF; experiment: Cytokine inhibition profile: TNF; type: cell-based; details: read-out: Inhibition Profile (IC50) TNF
Would you kindly list pIC50 for each of these compounds?
Give bare numbers, as −log10 of the molar value.

# annotated cases, reported pIC50 shown
# compound, system under test, pIC50
measured = [
    ("O[C@H](c1cc(C(F)(F)F)nc2c(C(F)(F)F)cccc12)[C@@H]1CCCCN1 [(+)Mefloquine, (+)-Erythro-mefloquine]", "TNF", 4.62),
    ("CCN(CC)CCCC(C)Nc1ccnc2cc(Cl)ccc12 (stereo not shown)", "TNF", 4.68),
    ("OC(c1cc(C(F)(F)F)nc2c(C(F)(F)F)cccc12)C1CCCCN1 (single isomer, unassigned; (-)) [(−)Mefloquine]", "TNF", 4.74),
]

Field: next compound
Could you share which pIC50 value was measured for CCN(CCO)CCCC(C)Nc1ccnc2cc(Cl)ccc12 (stereo not shown) [Hydroxychloroquine, hydroxychloroquine] ?
4.49

====

tested on: Interleukin-8 (IL-8); experiment: Cytokine inhibition profile: IL-8; assay type: cell-based
Would you kindly list IC50 for each of these molecules?
One number for each entry, in µM.

# molecule, system under test, endpoint value
rows = [
    ("O[C@H](c1cc(C(F)(F)F)nc2c(C(F)(F)F)cccc12)[C@@H]1CCCCN1 [(+)Mefloquine, (+)-Erythro-mefloquine]", "Interleukin-8 (IL-8)", 41),
]

Could you share which IC50 value was measured for OC(c1cc(C(F)(F)F)nc2c(C(F)(F)F)cccc12)C1CCCCN1 (single isomer, unassigned; (-)) [(−)Mefloquine] ?
63

====

system: IL-6; assay: Cytokine inhibition profile: IL-6; assay type: cell-based; details: read-out: Inhibition Profile (IC50) IL-6
readout: pIC50
Numbers only, as −log10 of the molar value.

# annotated cases, reported pIC50 shown
# molecule, endpoint value
rows = [
    ("CCN(CC)CCCC(C)Nc1ccnc2cc(Cl)ccc12 (stereo not shown)", 4.09),
    ("O[C@H](c1cc(C(F)(F)F)nc2c(C(F)(F)F)cccc12)[C@@H]1CCCCN1 [(+)Mefloquine, (+)-Erythro-mefloquine]", 4.28),
    ("CCN(CCO)CCCC(C)Nc1ccnc2cc(Cl)ccc12 (stereo not shown) [Hydroxychloroquine, hydroxychloroquine]", 4.05),
]

Field: next molecule
Could you share which pIC50 value was measured for OC(c1cc(C(F)(F)F)nc2c(C(F)(F)F)cccc12)C1CCCCN1 (single isomer, unassigned; (-)) [(−)Mefloquine] ?
4.37

====

system: T-cell proliferation; test: T-cell (lymphocyte) proliferation inhibition; type: cell-based, human; conditions: Homo sapiens, T-cell, read-out: Inhibition Profile (IC50) T-cell proliferation
readout: IC50 (µM)
Numbers only, in µM.

Could you share which IC50 value was measured for CCN(CC)CCCC(C)Nc1ccnc2cc(Cl)ccc12 (stereo not shown) ?
13

====

Would you kindly list pIC50 for each of these compounds?
tested on: IL-1; test: Cytokine inhibition profile: IL-1; type: cell-based; details: read-out: Inhibition Profile (IC50) IL-1
One number for each entry, as −log10 of the molar value.

# compound, pIC50
rows = [
    ("CCN(CCO)CCCC(C)Nc1ccnc2cc(Cl)ccc12 (stereo not shown) [Hydroxychloroquine, hydroxychloroquine]", 4.68),
    ("CCN(CC)CCCC(C)Nc1ccnc2cc(Cl)ccc12 (stereo not shown) [Chloroquine, chloroquine]", 5.20),
    ("OC(c1cc(C(F)(F)F)nc2c(C(F)(F)F)cccc12)C1CCCCN1 (single isomer, unassigned; (-)) [(−)Mefloquine]", 4.10),
]

Could you share which pIC50 value was measured for O[C@H](c1cc(C(F)(F)F)nc2c(C(F)(F)F)cccc12)[C@@H]1CCCCN1 [(+)Mefloquine, (+)-Erythro-mefloquine] ?
4.17
